Hey, just so you know, these numbers are from paper PMC5278714.

Test: Single-ascending-dose phase 1 study: plasma and urine pharmacokinetics
Assay type: in vivo, humans
Conditions: human; single 400 mg IV infusion over 1 h, plasma, arithmetic mean
Numbered stars: 1 amine (or outer) side, 2 acyl side, 3 side chain; on linkers, the order of the positions; unused ones are H or OH. Bridge positions count the residues as written; N and C are the ends. Square brackets hold non-standard residues; d marks the D form. Peptide text beside a SMILES is read from it. * marks the point of attachment. Orn(4R-OH,5R-OCH2CH2NMe3+) = C[N+](C)(C)CCO[C@@H](N[*:3])[C@H](O)C[C@H](N[*:1])C(=O)[*:2]; pTerphenylCO(4''-OnC5H11) = CCCCCOc1ccc(-c2ccc(-c3ccc(C(=O)*)cc3)cc2)cc1; hTyr(3S-OH,4S-OH) = N[C@H](C(=O)O)[C@H](O)[C@@H](O)c1ccc(O)cc1; Pro(3S-OH,4S-Me) = C[C@H]1CN[C@H](C(=O)O)[C@H]1O; Hyp = O=C(O)[C@@H]1C[C@@H](O)CN1
property.measured: half-life (days)
// return numeric value only (unit: days, not printed)

INPUT: Please give the measured half-life for this molecule: CCCCCOc1ccc(-c2ccc(-c3ccc(C(=O)N[C@H]4C[C@@H](O)[C@@H](OCC[N+](C)(C)C)NC(=O)[C@@H]5[C@@H](O)[C@@H](C)CN5C(=O)[C@H]([C@@H](C)O)NC(=O)[C@H]([C@H](O)[C@@H](O)c5ccc(O)cc5)NC(=O)[C@@H]5C[C@@H](O)CN5C(=O)[C@H]([C@@H](C)O)NC4=O)cc3)cc2)cc1 [CD101] ({pTerphenylCO(4''-OnC5H11)}-[Orn(4R-OH,5R-OCH2CH2NMe3+)]T[Hyp][hTyr(3S-OH,4S-OH)]T[Pro(3S-OH,4S-Me)]; lactam 1-C)
OUTPUT: 5.38
